Test system: OVCAR-3 ovarian
assayInfo: NCI-60 one-dose screen, 48 h (100 = growth as untreated, 0 = no growth, -100 = all killed)
conditionParameters: 10 µM unless noted
Compounds without any hit were thinned out: in the full panel of roughly 83,000, 20% have a hit.
metric: growth (%)
Express the result in % but write the number alone.

Recorded growth, per entry:
compound | growth / %
CCCCCCCCCCCCCC[N+](C)(C)CCCCCCCCCCCCCC | 87.5
COc1cc(C2Nc3ccccc3S2)cc(CN2CCOCC2)c1O (stereo not given) | 52
CN1CCN(Cc2ccc(NC(=O)c3cccc(C#Cc4cnc(N)c5ncccc45)c3F)cc2C(F)(F)F)CC1 | 73.2
COc1cc2nccc(Oc3ccc(NC(=O)C4(C(=O)Nc5ccc(F)cc5)CC4)cc3)c2cc1Oc1ccc(N)cn1 | 49.9
O=C(Nc1ccc(Oc2ccc(NC(=O)Nc3ccccc3Cl)cc2)cc1)Nc1ccccc1Cl | -38.3
C/C=C(\C)C(C(=O)NC1CCCCC1)N(C(=O)C1CCc2cc(F)ccc2O1)c1ccc([N+](=O)[O-])cc1 (stereo not given) | 89.4
Cn1nc(C(F)(F)F)cc1-c1cc(Cl)c(OCc2ccc(Cl)cc2)c(-c2ccc(Cl)c(C(F)(F)F)c2)c1O | 7.63
COc1ccc(C2C3CCc4ccccc4C3=NN2C(=O)c2cc(OC)c(OC)c(OC)c2)cc1O (stereo not given) | 109

Query: Which growth is reported with OVCAR-3 ovarian for this entry: Cc1c(C)c(C)c([N+](=O)[O-])c([N+](=O)[O-])c1C ?
Reply: 98.5

Query: Which growth is reported with OVCAR-3 ovarian for this entry: CC(C)[C@H](CN)NC[C@H](C)NS(=O)(=O)c1ccc(C(C)(C)C)cc1 ?
Reply: 103

====

Test system: EKVX NSCLC
assayInfo: NCI-60 one-dose screen, 48 h (100 = growth as untreated, 0 = no growth, -100 = all killed)
conditionParameters: 10 µM unless noted
Method: Growth inhibition of the EKVX human Non-Small Cell Lung tumor cell line is measured as a screen for anti-cancer activity. Cells are grown in 96 well plates and exposed to the test compound for 48 hours. Compounds are tested at a single concentration, which is 10^-5 M for most compounds. The reported endpoint is percent growth (GI% or GIPRCNT), where numbers from 0 - 100% represent growth inhibition, and numbers from -100% - 0 represent cell death. […]
Compounds without any hit were thinned out: in the full panel of roughly 83,000, 20% have a hit. Calls of active or inactive are those of the source. The calls were made as follows: active = growth percent below 10; inactive = the rest.
metric: growth

molecule | measurementTarget | growth
CCN1CCN(Cc2ccc(NC(=O)c3nc4ccc5[nH]ncc5c4c4c3CCCC4)cc2C(F)(F)F)CC1 | EKVX NSCLC | 74.3% (inactive)
CCN(C(=O)Nc1cccc2ccccc12)c1ccccc1 | EKVX NSCLC | 95.9% (inactive)
C=C1NC(=O)C(C(C)CC)NC(=O)C2CSCC(NC(=O)CCC(=O)O)C(=O)NC(Cc3ccccc3)C(=O)NC(C)C(=O)NC(CC(C)CC)C(=O)NC(C(=O)NC(Cc3ccccc3)C(=O)N3CCCC3C(=O)N2)C(C)OC(=O)C(CO)NC(=O)C(C(O)COC)N(C)C(=O)C(C(C)C)NC(=O)C(CC(C)CC)NC1=O (stereo unspecified) | EKVX NSCLC | 30.4% [6 µM] (inactive)

Now for a further molecule.
Query: Would you kindly share the measured growth for O=C(Nc1ccc(Oc2ccc(NC(=O)Nc3ccccc3Cl)cc2)cc1)Nc1ccccc1Cl ?
Reply: 76.5% (inactive)

====

System: MDA-MB-231 breast
assayInfo: NCI-60 one-dose screen, 48 h
conditionParameters: 10 µM unless noted
About 83,000 compounds went through this panel and 20% of them were active in at least one assay; those are over-represented in the sample as a whole. Calls of active or inactive are those of the source. Rule for the calls: active = growth percent below 10; inactive = the rest.
Returns: one label drawn from Y = active, N = inactive

Field: example entries. Status: answers known.
molecule | measurementTarget | label
Cc1cc(C#Cc2ccccc2)ccc1-n1c(/C=C/c2ccc(F)cc2)nc2ccccc2c1=O | MDA-MB-231 breast | N
Cc1nc2n[nH]c(N)c2nc1C | MDA-MB-231 breast | N
CCN(CC)CCNc1c(C)cc(CO)c(Cl)c1C | MDA-MB-231 breast | N
COc1c(B(O)O)cccc1-c1nc2c(F)cc3n[nH]c(C)c3c2c2c1CCCC2 | MDA-MB-231 breast | N
Oc1c(C(c2ccc(F)cc2)N2CCCCC2)ccc2cncnc12 (stereo not given) | MDA-MB-231 breast | N

Query: In this assay, the call recorded for O=S(=O)(NCC[C@@H]1C[C@H]1c1ccc2ccccc2c1)c1ccc(C(F)(F)F)cc1 was what?
Reply: N

Query: In this assay, the call recorded for O=C(Cc1ccc(Nc2ccnc(C(F)(F)F)c2)cc1)N/N=C/c1ccccc1O was what?
Reply: N

Query: In this assay, the call recorded for Cc1[nH]n(C(=O)c2ccncc2)c(=O)c1N=Nc1ccc(O)c(C(=O)O)c1 was what?
Reply: N

Query: In this assay, the call recorded for N#Cc1nc(-c2ccc(Cl)cc2)cc(-c2ccc(Nc3nc(N4CCCCC4)nc(N4CCCCC4)n3)cc2)c1N was what?
Reply: N

Query: In this assay, the call recorded for CCCCN(CCCC)CCCN=c1nc2c(c(N)n1-c1ccccc1)c(=S)n(-c1ccccc1)c(=S)n2-c1ccccc1 was what?
Reply: Y

====

System: MCF7 breast
assayInfo: NCI-60 one-dose screen, 48 h
conditionParameters: 10 µM unless noted
Experimental: Growth inhibition of the MCF7 human tumor cell line is measured as a screen for anti-cancer activity. Cells are grown in 96 well plates and exposed to the test compound for 48 hours. Compounds are tested at a single concentration, which is 10^-5 M for most compounds. The reported endpoint is percent growth (GI% or GIPRCNT), where numbers from 0 - 100% represent growth inhibition, and numbers from -100% - 0 represent cell death. For example, a value of 40 represents 60% growth inhibition. […]
Compounds without any hit were thinned out: in the full panel of roughly 83,000, 20% have a hit. Active and inactive are the calls of the source. How the source made its calls: active means growth percent below 10; inactive means the rest.
Returns: one label drawn from active, inactive

Field: example entries. Status: answers known.
compound | label
c1ccc(C(CC2=NCCCN2)c2ccccc2)cc1 | inactive
Cc1cc(O)c(C2=NN(c3ccc(S(N)(=O)=O)cc3)C(c3ccc(Cl)cc3)C2)c(C)c1Cl (centres undefined) | inactive
CCCNC(=S)N/N=C(\C)c1ccccn1 | active
C#CC[C@@H]1C[C@]2(C)[C@H]3CC=C4[C@H]5CC(C)(C)CC[C@]5(C(=O)NCCCCN)CC[C@@]4(C)[C@]3(C)CC[C@H]2C(C)(C)[C@H]1OC(C)=O | active
CNCc1cccc2c1OCCOCCOCCC(C)S(=O)(=O)c1ccc(cc1)-c1cnc(N)c(n1)C(=O)N2 (centres undefined) | inactive
O=C(NC1CC1)c1ccc(-c2nc3ccc4[nH]ncc4c3c3c2CCCC3)cc1 | inactive
COc1ccc(C(=O)C(C#N)c2cc(OC)c(OC)c(OC)c2)cc1 (centres undefined) | inactive
COc1ccc(C2=CC(c3ccc(OC)cc3Br)N3C=CSC3=N2)cc1 (centres undefined) | inactive

Query: In this assay, the call recorded for CCc1ccc(Nc2cc(C)c3ccc(O)cc3n2)cc1 was what?
Reply: inactive

Query: In this assay, the call recorded for COc1ccc(NC(=O)/C=C/c2ccc(Cl)c(Cl)c2)cn1 was what?
Reply: inactive

====

System: MDA-MB-435 melanoma
assayInfo: NCI-60 one-dose screen, 48 h (100 = growth as untreated, 0 = no growth, -100 = all killed)
conditionParameters: 10 µM unless noted
The panel holds about 83,000 compounds, 20% with a hit somewhere; the sample as a whole holds those more often.
metric: growth (%)
Express the result in % but write the number alone.

molecule | measurementTarget | growth / %
C=CCn1c(SCC(=O)Nc2ccc(C(=O)/C=C/c3ccc(Cl)cc3)cc2)nnc1-c1ccc(Cl)cc1 | MDA-MB-435 melanoma | 96.7
COc1ccc(-c2cnc3ccnn3c2-c2cc(OC)c(OC)c(OC)c2)cc1 | MDA-MB-435 melanoma | -38.5

Query: Would you kindly share the measured growth for COC(=O)c1ccc(NC(N)=NCCC(C)(C)c2ccc(C(F)(F)F)cc2)nc1 ?
Reply: 50.1

Query: Would you kindly share the measured growth for FC1(F)CCN(Cc2c[nH]c3cc(Cl)ccc23)C[C@H]1CCc1ccccc1 ?
Reply: 59.3

Query: Would you kindly share the measured growth for N=c1n(Cc2ccccc2)c(N)cc(=O)n1Cc1ccccc1 ?
Reply: 37.2

Query: Would you kindly share the measured growth for COC(=O)CNS(=O)(=O)c1ccc2c(c1)Cc1cc(S(=O)(=O)NCC(=O)OC)ccc1-2 ?
Reply: 103

====

System: IGROV1 ovarian
assayInfo: NCI-60 one-dose screen, 48 h (100 = growth as untreated, 0 = no growth, -100 = all killed)
conditionParameters: 10 µM unless noted
The panel holds about 83,000 compounds, 20% with a hit somewhere; the sample as a whole holds those more often. The source made the active and inactive calls. The calls were made as follows: active = growth percent below 10; inactive = the rest.
metric: growth

molecule | growth
O=C(O)c1cn(-c2ccccc2)nc1-c1ccc(O)cc1 | 111% (inactive)
CC(=O)OC1Oc2ccccc2-c2oc3nc(=N)n(C)c-3cc21 (stereo unspecified) | 102% (inactive)
COc1ccc2c(c1)CCCC21C(=O)Nc2c(Cl)cccc21 (stereo unspecified) | 88.5% (inactive)
Clc1ccccc1Nc1nnc(-c2ccncc2)s1 | 101% (inactive)
CC(=O)Nc1ccc(Cl)cc1Cl | 60.8% (inactive)

Query: Would you kindly share the measured growth for COc1ccc2c(c1)N(CCO)C1=C(C(=O)OC1)C2c1cccc(Br)c1 (stereo unspecified) ?
Reply: 11.2% (inactive)

Query: Would you kindly share the measured growth for CCOC(=O)c1ccc(NCCC(=O)O)cc1 ?
Reply: 112% (inactive)

Query: Would you kindly share the measured growth for Cc1cc(C)c2c(n1)sc1c(Nc3ccc(OCc4ccccc4)cc3)ncnc12 ?
Reply: 97.5% (inactive)
